- Test system: Hek293T
- method_description: Primary qHTS to identify gynecologic anti-cancer compounds using libraries of approved drugs and bioactive compounds (AID 1345084); note: nearly all actives have a fitted effect of over 55% in size
- condition: Gynecologic cancer cell panel viability, ATPlite luminescence, 48 h, control line for the selectivity index; series mostly up to 57.5 µM
Results filed as inconclusive are left out. Calls of active or inactive are those of the source. Calls come from the whole dose curve; as a rule, active = well fitted cell-killing curve with a large enough effect; inconclusive = small, poorly fitted or top-dose-only effect, or effect the other way; inactive = flat fitted curve, though single readings scatter.
Possible outcomes: TRUE for active, FALSE for inactive

compound=COC(=O)C(Cc1ccc(OCCn2c(=O)sc3cc(C(=O)c4ccccc4)ccc32)cc1)C(=O)OC cat=FALSE
compound="CC1=CC2/C=C(\\C)CCC(O)C(=O)C(O)CC(=O)C23C(=O)NC(CC(C)C)C3C1C (stereo not drawn)" cat=FALSE
compound=CC(=O)O[C@@H]1C2=C(O)C(=O)[C@](C)(OC(C)=O)C(=O)C2=CO[C@@]12O[C@@H](C)CC[C@H]2OC(C)=O cat=FALSE
compound=Cc1ccc(NC(=O)N2CCN(c3nc(N)nc4sc(-c5cccnc5)nc34)CC2)cc1 cat=FALSE
compound=Fc1ccc(-c2nc(C3CCNCC3)sc2-c2ccnc(NC3CC3)n2)cc1 cat=FALSE
compound=C=C1/C(=C/C=C2\CCC[C@]3(C)[C@@H]([C@H](C)/C=C/[C@H](O)C4CC4)CC[C@@H]23)C[C@@H](O)C[C@@H]1O cat=FALSE
compound=COc1ccc(C#Cc2ccc(C(=O)N3CCC[C@@H](O)C3)c(F)c2)cc1 cat=TRUE
compound=COc1ccc2nccc(C(=O)CC[C@@H]3CCN(CC#Cc4cc(F)cc(F)c4F)C[C@@H]3C(=O)O)c2c1 cat=FALSE

---

- Tested on: Tov112D
- method_description: Primary qHTS to identify gynecologic anti-cancer compounds using libraries of approved drugs and bioactive compounds (AID 1345084); note: nearly all actives have a fitted effect of over 55% in size
- condition: Gynecologic cancer cell panel viability, ATPlite luminescence, 48 h; series mostly up to 57.5 µM
Results filed as inconclusive are left out. The source made the active and inactive calls. Calls follow the shape of the dose curve; as a rule, active = well fitted cell-killing curve with a large enough effect; inconclusive = small, poorly fitted or top-dose-only effect, or effect the other way; inactive = flat fitted curve, though single readings scatter.
Possible outcomes: active, inactive

molecule="NS(=O)(=O)c1ccc(N2N=C(c3ccccc3)CC2c2ccccc2)cc1 (configuration not stated)" cat=inactive
molecule=Cc1cc(C(=O)Cn2cc(C#N)ccc2=O)c(C)n1Cc1ccccc1 cat=inactive
molecule=C=C[C@H](/C=C\c1ccc(O)cc1)c1ccc(O)cc1 cat=inactive
molecule="O=C(NCc1ccc(OC(F)(F)F)cc1)C1c2c(F)cccc2C(=O)N1CCc1ccccn1 (configuration not stated)" cat=inactive
molecule=Cc1ccc(C2(C(=O)N3CCC(n4nc(-c5ccccc5)oc4=O)CC3)CC2)cc1 cat=inactive
molecule=OC[C@H]1O[C@@H](OC/C=C/c2ccc(O)cc2)[C@H](O)[C@@H](O)[C@@H]1O cat=inactive
molecule=O=C(NCc1nc2ccccc2c(=O)n1-c1ccc(F)cc1)Nc1ccc(Cl)c(C(F)(F)F)c1 cat=inactive
molecule=O=C(NCC1(c2nc(-c3ccccc3)cs2)CCOCC1)c1cccc(-c2noc(C(F)(F)F)n2)c1 cat=inactive
molecule=C=CC(=O)N1CCCN(c2cc(NCCC(=O)O)nc(-c3ccccn3)n2)CC1 cat=inactive
molecule=C=C1CCC[C@]2(C)CC/C(=C(/CO)C(=O)OC)C[C@@H]12 cat=inactive
molecule=C/C=C(\C)C(=O)O[C@H]1C[C@](C)(O)[C@H]2CC=C(C)[C@H]2[C@@H]2OC(=O)[C@H](C)[C@H]21 cat=inactive
molecule=CC(=O)c1c(C)cc2cccc(O)c2c1O[C@@H]1O[C@H](CO)[C@@H](O)[C@H](O)[C@H]1O cat=inactive
molecule="C=C1CC2OC(=O)C(=C)C2C(OC(=O)/C(C)=C\\C)CC2(C)OC1=CC2=O (configuration not stated)" cat=inactive
molecule=N#Cc1ccc(COC[C@H]2O[C@@H](n3c(NCc4ccc(Cl)c(Cl)c4)nc4c(N)ncnc43)[C@H](O)[C@@H]2O)cc1 cat=inactive
molecule=O=C(N[C@@H]1CCCc2c1cnn2-c1ccc(F)cc1F)c1ccccn1 cat=inactive
molecule=CN(C)[C@@H]1CCc2[nH]c3ccc(NC(=O)c4ccc(F)cc4)cc3c2C1 cat=inactive
molecule="C/C1=C\\CCC2=CC(OC2=O)C(C)(C)/C=C/C1=O (configuration not stated)" cat=inactive
molecule=O=C(Nc1ccc2[nH]nc(-c3ccncc3)c2c1)[C@@H]1CCN(CC(=O)N2CCN(c3ccc(-c4ncccn4)cc3)CC2)C1 cat=inactive
molecule=COc1cc2c(cc1NS(=O)(=O)c1ccc(Br)cc1C)n(C)c(=O)n2C cat=inactive
molecule="COc1c(C(C)C)c(O)c(O)c2c1C(OC)[C@H]1OC(=O)[C@@]23CCCC(C)(C)[C@H]13 (some centres not stated)" cat=inactive
molecule=O=C(NC1CCC1)c1ccc(C#Cc2cccc(F)c2)nc1 cat=inactive
molecule=C#CCNCc1cc2cc(OCc3ccccc3)ccc2[nH]1 cat=inactive
molecule="C=C(C)[C@@H]1CC[C@]2(C(=O)O)CC[C@]3(C(=O)O)[C@H](CCC4[C@@]5(C)CCC(=O)C(C)(C)C5CC[C@]43C)C12 (some centres not stated)" cat=inactive
molecule=COc1ccc(-c2cnc3c(-c4cccc5ncccc45)cnn3c2)cc1 cat=inactive
molecule="COc1c(C(O)CC(C)C)ccc2c1C(=O)OCc1cc(C)cc(O)c1O2 (configuration not stated)" cat=inactive
molecule=C[C@@H](c1ccc2nccn2c1)n1nnc2ncc(-c3cnn(C)c3)nc21 cat=inactive
molecule=Fc1ccc2[nH]ccc2c1-c1nc(N2CCOCC2)c2sc(CN3CCN(CC4CC4)CC3)cc2n1 cat=inactive
molecule=Cc1ccc(-c2ncc[nH]2)cc1NC(=O)c1ccc(OCc2ccccn2)cc1 cat=inactive
molecule=CCN1CCC[C@@H]1CNC(=O)c1ccc2c(c1)NC(=O)c1cccc(C)c1S2 cat=inactive
molecule="COC1=CC(=O)C=C(C)C12Oc1c(Cl)c(OC)cc(OC)c1C2=O (configuration not stated)" cat=inactive
molecule="CC/C(C)=C/C(=O)OC1C(OC2(C)CCC3C(C4C(C)CCC42)C3(C)C)OC(C)C(O)C1O (configuration not stated)" cat=inactive
molecule=N#Cc1ccc(Nc2nc(-c3ccc(O)cc3O)cs2)cc1C(F)(F)F cat=active
molecule="CCC(C(C)O)n1ncn(-c2ccc(N3CCN(c4ccc(OCC5COC(Cn6cncn6)(c6ccc(F)cc6F)C5)cc4)CC3)cc2)c1=O (configuration not stated)" cat=inactive
molecule="COc1cc2c(cc1OC(C)C)[C@H](c1ccc(Cl)cc1)N(c1ccc(N(C)CC3CCC(N4CCN(C)C(=O)C4)CC3)cc1)C(=O)C2 (some centres not stated)" cat=inactive
molecule="CC(NCCCc1cccc(C(F)(F)F)c1)c1cccc2ccccc12 (configuration not stated)" cat=inactive
molecule=CC(=O)O[C@]1(C(C)=O)CC[C@H]2[C@@H]3CCC4=CC(=O)CCC4=C3[C@@H](c3ccc(N(C)C)cc3)C[C@@]21C cat=inactive
molecule="C=C1C(=O)OC2/C=C(\\CO)CC/C=C(\\C=O)C(O)C(OC(=O)C(C)CC)C12 (configuration not stated)" cat=inactive

---

- Tested on: Tov-21-G
- method_description: Primary qHTS to identify gynecologic anti-cancer compounds using libraries of approved drugs and bioactive compounds (AID 1345084); note: nearly all actives have a fitted effect of over 55% in size; note: potency is the fitted concentration of half-maximal effect
- condition: Gynecologic cancer cell panel viability, ATPlite luminescence, 48 h; series mostly up to 57.5 µM
Results filed as inconclusive are left out. The source made the active and inactive calls. Calls come from the whole dose curve; as a rule, active = well fitted cell-killing curve with a large enough effect; inconclusive = small, poorly fitted or top-dose-only effect, or effect the other way; inactive = flat fitted curve, though single readings scatter.
property_name: Potency

compound="Cc1ccccc1C(C(=O)NC1CCCCC1)N(C(=O)Cn1cnc2ccccc21)c1cccc(F)c1 (centres undefined)" assay_target=Tov-21-G property_name=Potency reported_result=inactive
compound=COc1ccc(Cl)c(Nc2ncnc3cc(OCC4CCN(C)CC4)c(OC)cc23)c1 assay_target=Tov-21-G property_name=Potency reported_result="3.16 µM (active)"
compound=Cn1ncnc1[C@@H]1c2n[nH]c(=O)c3cc(F)cc(c23)N[C@H]1c1ccc(F)cc1 assay_target=Tov-21-G property_name=Potency reported_result=inactive
compound="CC(=O)OC1C(OC(=O)c2ccccc2)C2C(=C(C)CCC2(C)C)C23CCC(C)(C2)C(=O)CC13 (centres undefined)" assay_target=Tov-21-G property_name=Potency reported_result=inactive
compound=CC(C)NCCCn1c(Sc2cc3c(cc2I)OCO3)nc2c(N)ncnc21 assay_target=Tov-21-G property_name=Potency reported_result="0.501 µM (active)"
compound="C/C=C\\NC(=O)C1NC(=O)C(CC(N)=O)NC(=O)C(NC(=O)C(=O)C(C)CC)Cc2ccc(O)c(c2)-c2cccc3c2NC(=O)C3(O)C1O (centres undefined)" assay_target=Tov-21-G property_name=Potency reported_result="4.47 µM (active)"
compound="CCC(CC)C(=O)OC12C(OC(=O)C(C)C)C(C)C3(O)C(C=C(CO)CC4(O)C(=O)C(C)=CC43)C1C2(C)C (centres undefined)" assay_target=Tov-21-G property_name=Potency reported_result=inactive
compound=O=C(Nc1ccccc1C(=O)Nc1ccc(CCO)cc1)c1ccc([N+](=O)[O-])cc1 assay_target=Tov-21-G property_name=Potency reported_result=inactive
compound="CC1CCC(=O)CC(SCC(O)C(=O)O)CCC(=O)O1 (centres undefined)" assay_target=Tov-21-G property_name=Potency reported_result=inactive
